Recorded values, source patent US10442835B2.

Experiment: In vivo pharmacokinetic study in rats
Design: species or system SD rats
Settings: Sprague-Dawley (SD), rat; everolimus in plasma; everolimus PO 10 mg/kg, male SD rats; read-out: MRT (mean residence time)
Procedure: To further study the in vivo pharmacokinetic characteristics of compound I-1 in rats, compound I-1 was administrated to SD rats via intravenous injection. The in vivo pharmacokinetic characteristics and bioavailability of everolimus released in rats were measured, and compared with the pharmacokinetic characteristics of everolimus via oral administration. Then the animals were observed when blood was sampled every time until the last sample was collected.
parameter: MRT
Please answer using the number first and the unit second.

Problem: Could you tell me which MRT is on file for CO[C@H]1C[C@@H]2CC[C@@H](C)[C@@](O)(O2)C(=O)C(=O)N2CCCC[C@H]2C(=O)O[C@H]([C@H](C)C[C@@H]2CC[C@@H](OCCO)[C@H](OC)C2)CC(=O)[C@H](C)/C=C(\C)[C@@H](O)[C@@H](OC)C(=O)[C@H](C)C[C@H](C)/C=C/C=C/C=C/1C [Everolimus, reference compound] ?
Result: 3.17 h

---

assay: In vivo pharmacokinetic study in rats; parameters: species or system SD rats; settings: Sprague-Dawley (SD), rat; everolimus in plasma; everolimus PO 10 mg/kg, male SD rats
parameter: Tmax (h)
Report as a plain number; the unit h is understood.

Problem: Could you tell me which Tmax is on file for CO[C@H]1C[C@@H]2CC[C@@H](C)[C@@](O)(O2)C(=O)C(=O)N2CCCC[C@H]2C(=O)O[C@H]([C@H](C)C[C@@H]2CC[C@@H](OCCO)[C@H](OC)C2)CC(=O)[C@H](C)/C=C(\C)[C@@H](O)[C@@H](OC)C(=O)[C@H](C)C[C@H](C)/C=C/C=C/C=C/1C [Everolimus, reference compound] ?
Result: 1.91

---

test: In vivo pharmacokinetic study in rats; parameters: species or system SD rats; conditions: Sprague-Dawley (SD), rat; everolimus in plasma; everolimus PO 10 mg/kg, male SD rats
parameter: half-life (h)
Report as a plain number; the unit h is understood.

Problem: Could you tell me which half-life is on file for CO[C@H]1C[C@@H]2CC[C@@H](C)[C@@](O)(O2)C(=O)C(=O)N2CCCC[C@H]2C(=O)O[C@H]([C@H](C)C[C@@H]2CC[C@@H](OCCO)[C@H](OC)C2)CC(=O)[C@H](C)/C=C(\C)[C@@H](O)[C@@H](OC)C(=O)[C@H](C)C[C@H](C)/C=C/C=C/C=C/1C [Everolimus, reference compound] ?
Result: 2.2

---

experiment: In vivo pharmacokinetic study in rats; set-up: species or system SD rats; conditions: Sprague-Dawley (SD), rat; everolimus in plasma; everolimus PO 10 mg/kg, male SD rats
parameter: Cmax (ng/mL)
Report as a plain number; the unit ng/mL is understood.

Problem: Could you tell me which Cmax is on file for CO[C@H]1C[C@@H]2CC[C@@H](C)[C@@](O)(O2)C(=O)C(=O)N2CCCC[C@H]2C(=O)O[C@H]([C@H](C)C[C@@H]2CC[C@@H](OCCO)[C@H](OC)C2)CC(=O)[C@H](C)/C=C(\C)[C@@H](O)[C@@H](OC)C(=O)[C@H](C)C[C@H](C)/C=C/C=C/C=C/1C [Everolimus, reference compound] ?
Result: 126

---

experiment: In vivo pharmacokinetic study in rats; parameters: species or system SD rats; settings: rat, plasma; 1 h; oral administration of everolimus 10.000 mg/kg, male SD rats
parameter: concentration at 1 h (ng/mL)
Report as a plain number; the unit ng/mL is understood.

Problem: Could you tell me which concentration at 1 h is on file for CO[C@H]1C[C@@H]2CC[C@@H](C)[C@@](O)(O2)C(=O)C(=O)N2CCCC[C@H]2C(=O)O[C@H]([C@H](C)C[C@@H]2CC[C@@H](OCCO)[C@H](OC)C2)CC(=O)[C@H](C)/C=C(\C)[C@@H](O)[C@@H](OC)C(=O)[C@H](C)C[C@H](C)/C=C/C=C/C=C/1C [Everolimus, reference compound] ?
Result: 99.1
